Ref: patent US11987648B2

- measured-on: UniProt P35346
- Sequence (P35346 whole entry): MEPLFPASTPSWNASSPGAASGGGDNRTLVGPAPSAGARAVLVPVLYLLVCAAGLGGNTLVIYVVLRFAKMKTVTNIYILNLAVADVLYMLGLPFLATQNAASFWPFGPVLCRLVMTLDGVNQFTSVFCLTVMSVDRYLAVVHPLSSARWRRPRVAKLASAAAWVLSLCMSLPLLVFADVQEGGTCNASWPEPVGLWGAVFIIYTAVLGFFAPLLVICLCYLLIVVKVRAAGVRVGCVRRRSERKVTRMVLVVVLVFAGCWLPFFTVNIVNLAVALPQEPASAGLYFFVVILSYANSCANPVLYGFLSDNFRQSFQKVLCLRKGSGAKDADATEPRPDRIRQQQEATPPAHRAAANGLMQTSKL
- test-protocol: Hit Hunter cAMP XS+ assay, SST5 activation via Gi (reduction of forskolin-stimulated cAMP)
- Type: cell-based
- condition-label: read-out: SST5 (EMax)
*1 amine or outer side, *2 acyl side, *3 side chain or, on linkers, in order; H or OH if unused. Where a SMILES comes first, the peptide text is derived from it. Side-chain parts run from the residue outwards. [ ]: non-standard residue; d: D form. The star is where a group is joined. Ala(piperidin-4-yl) = O=C([C@H](CC1CCN([*:3])CC1)N[*:1])[*:2]; X2 = O=C([C@@H]1C[C@@H](Oc2ccncc2)CN1[*:1])[*:2]; Phe(3-OMe) = COc1cccc(C[C@H](N)C(=O)O)c1; Ethylenediamine = C(CN[*:2])N[*:1]; d(hPhe) = N[C@H](CCc1ccccc1)C(=O)O; Hyp = O=C(O)[C@@H]1C[C@@H](O)CN1; 3Pal = N[C@@H](Cc1cccnc1)C(=O)O; Phg = N[C@H](C(=O)O)c1ccccc1; CO = O=C([*:1])[*:2]; Bn = c1ccc(C*)cc1
metric-name: Emax (%)

# molecule, metric-name, units-symbol, test-result
rows = [
    ("COc1cccc(C[C@@H]2NC(=O)[C@H](Cc3ccc(OCc4ccccc4)cc3)NC(=O)[C@H](CC3CCNCC3)NC(=O)[C@@H](Cc3c[nH]c4ccccc34)NC(=O)[C@H](c3ccccc3)NC(=O)[C@@H]3C[C@@H](OC(=O)NCCN)CN3C2=O)c1 [Example 12] (cyclo([Hyp]([CO-Ethylenediamine])[Phg][dW][Ala(piperidin-4-yl)]Y(Bn)[Phe(3-OMe)]))", "Emax", "%", 98.1),
    ("O=C1N[C@@H](Cc2cccnc2)C(=O)N2C[C@H](Oc3ccncc3)C[C@H]2C(=O)N[C@H](CCc2ccccc2)C(=O)N[C@H](Cc2c[nH]c3ccccc23)C(=O)N[C@@H](CC2CCNCC2)C(=O)N[C@H]1Cc1ccc(OCc2ccccc2)cc1 [Example 20] (cyclo([3Pal][X2][d(hPhe)][dW][Ala(piperidin-4-yl)]Y(Bn)))", "Emax", "%", 99.6),
]
